system: A431 (epidermoid carcinoma); assay: MTT antiproliferative assay, A431; format: cell-based; conditions: Homo sapiens, A-431, A431, 10 μM, 48 or 72 h, read-out: inhibition of cell growth, A431
Endpoint label: inhibition at 10 µM

* COC(=O)[C@]1(C)CC[C@]2(C)CC[C@]3(C)C4=CC=C5C(=CC(=O)C(=O)C5(C)O)[C@]4(C)CC[C@@]3(C)[C@@H]2C1 (some centres unmarked) [Compound A32] | ≥ 80%
* CO[C@]1(C)C(=O)C(=O)C=C2C1=CC=C1[C@@]2(C)CC[C@@]2(C)[C@@H]3C[C@](C)(C(=O)F)CC[C@]3(C)CC[C@]12C [Compound A8] | ≥ 80%
* CO[C@@]1(C)C2=CC=C3[C@@](C)(CC[C@@]4(C)[C@@H]5C[C@](C)(C(=O)N6CCOCC6)CC[C@]5(C)CC[C@]34C)C2=CC(=O)[C@@H]1O [Compound A56] | ≥ 80%
* CNC(=O)[C@]1(C)CC[C@]2(C)CC[C@]3(C)C4=CC=C5C(=CC(=O)C(=O)[C@@]5(C)OC)[C@]4(C)CC[C@@]3(C)[C@@H]2C1 [Compound A7] | 50 to 80%
* CC(=O)OC1(C)C(=O)C(=O)C=C2C1=CC=C1[C@@]2(C)CC[C@@]2(C)[C@@H]3C[C@](C)(C(=O)O)CC[C@]3(C)CC[C@]12C (some centres unmarked) [Compound A3] | ≥ 80%
* CO[C@@]1(C)C2=CC=C3[C@@](C)(CC[C@@]4(C)[C@@H]5C[C@](C)(C(=O)O)CC[C@]5(C)CC[C@]34C)C2=CC(=NO)[C@@H]1O [Compound A50] | < 30%
* CO[C@@]1(C)C2=CC=C3[C@@](C)(CC[C@@]4(C)[C@@H]5C[C@](C)(C(=O)OCc6ccccc6)CC[C@]5(C)CC[C@]34C)C2=CC(=O)[C@@H]1O [Compound A16] | ≥ 80%
* CNC1(O)C(=O)C=C2C(=CC=C3[C@@]2(C)CC[C@@]2(C)[C@@H]4C[C@](C)(C(=O)OC)CC[C@]4(C)CC[C@]32C)[C@]1(C)OC (some centres unmarked) [Compound A26] | 30 to 50%
* CO[C@@]1(C)C2=CC=C3[C@@](C)(CC[C@@]4(C)[C@@H]5C[C@](C)(C(=O)O)CC[C@]5(C)CC[C@]34C)C2=CC(=O)C1=NNC(=O)c1ccncc1 [Compound A52] | < 30%
* COC(=O)[C@]1(C)CC[C@]2(C)CC[C@]3(C)C4=CC=C5C(=CC(=O)C(=O)[C@@]5(C)OC)[C@]4(C)CC[C@@]3(C)[C@@H]2C1 [Compound A5] | ≥ 80%
* CO[C@]1(C)C(=O)C(=O)C=C2C1=CC=C1[C@@]2(C)CC[C@@]2(C)[C@@H]3C[C@](C)(C(=O)OCc4ccccc4)CC[C@]3(C)CC[C@]12C [Compound A11] | < 30%

====

Property: inhibition at 10 µM; scope: individual compounds
test system: MDA-MB-231 (breast cancer); assay: MTT antiproliferative assay, MDA-MB-231; assay type: cell-based; details: Homo sapiens, MDA-MB-231, 10 μM, 48 or 72 h, read-out: inhibition of cell growth, MDA-MB-231
Endpoint label: inhibition at 10 µM

* COC(=O)[C@]1(C)CC[C@]2(C)CC[C@]3(C)C4=CC=C5C(=CC(=O)C(=O)C5(C)O)[C@]4(C)CC[C@@]3(C)[C@@H]2C1 (some centres unmarked) | ≥ 80%
* CO[C@@]1(C)C2=CC=C3[C@@](C)(CC[C@@]4(C)[C@@H]5C[C@](C)(C(=O)NO)CC[C@]5(C)CC[C@]34C)C2=CC(=O)[C@@H]1O | 50 to 80%
* COC1(C)C2=CC=C3[C@@](C)(CC[C@@]4(C)[C@@H]5C[C@](C)(C(=O)O)CC[C@]5(C)CC[C@]34C)C2=CC(=O)C1CC#N (stereo in doubt) | 30 to 50%
* CNC1(O)C(=O)C=C2C(=CC=C3[C@@]2(C)CC[C@@]2(C)[C@@H]4C[C@](C)(C(=O)OC)CC[C@]4(C)CC[C@]32C)[C@]1(C)OC (some centres unmarked) | 30 to 50%
* COC(=O)[C@]1(C)CC[C@]2(C)CC[C@]3(C)C4=CC=C5C(=CC(=O)C(=O)[C@@]5(C)OC)[C@]4(C)CC[C@@]3(C)[C@@H]2C1 | ≥ 80%

====

system: A549 (lung adenocarcinoma); experiment: MTT antiproliferative assay, A549; format: cell-based; conditions: Homo sapiens, A549, 10 μM, 48 or 72 h, read-out: inhibition of cell growth, A549
Endpoint label: inhibition at 10 µM

* COC(=O)[C@]1(C)CC[C@]2(C)CC[C@]3(C)C4=CC=C5C(=CC(=O)[C@H](O)[C@@]5(C)OC)[C@]4(C)CC[C@@]3(C)[C@@H]2C1 [Compound A20] | ≥ 80%
* CNC(=O)[C@]1(C)CC[C@]2(C)CC[C@]3(C)C4=CC=C5C(=CC(=O)[C@H](O)[C@@]5(C)OC)[C@]4(C)CC[C@@]3(C)[C@@H]2C1 [Compound A17] | 30 to 50%
* CO[C@@]1(C)C2=CC=C3[C@@](C)(CC[C@@]4(C)[C@@H]5C[C@](C)(C=O)CC[C@]5(C)CC[C@]34C)C2=CC(=O)[C@@H]1O [Compound A19] | 50 to 80%
* CO[C@]1(C)C(=O)C(=O)C=C2C1=CC=C1[C@@]2(C)CC[C@@]2(C)[C@@H]3C[C@](C)(C(=O)NO)CC[C@]3(C)CC[C@]12C [Compound A45] | ≥ 80%
* CCCC(=O)O[C@H]1C(=O)C=C2C(=CC=C3[C@@]2(C)CC[C@@]2(C)[C@@H]4C[C@](C)(C(=O)NC)CC[C@]4(C)CC[C@]32C)[C@]1(C)OC [Compound A23] | ≥ 80%
* CO[C@]1(C)C(=O)C(=O)C=C2C1=CC=C1[C@@]2(C)CC[C@@]2(C)[C@@H]3C[C@](C)(C(N)=O)CC[C@]3(C)CC[C@]12C [Compound A9] | 30 to 50%
* CO[C@@]1(C)C2=CC=C3[C@@](C)(CC[C@@]4(C)[C@@H]5C[C@](C)(C(=O)O)CC[C@]5(C)CC[C@]34C)C2=CC(O)C1O (some centres unmarked) [Compound A29] | < 30%
* CO[C@@]1(C)C2CCC3[C@@](C)(CC[C@@]4(C)[C@@H]5C[C@](C)(C(=O)O)CC[C@]5(C)CC[C@]34C)C2=CC(=O)[C@@H]1O (some centres unmarked) [Compound A21] | < 30%
* CO[C@@]1(C)C2=CC=C3[C@@](C)(CC[C@@]4(C)[C@@H]5C[C@](C)(C(=O)NO)CC[C@]5(C)CC[C@]34C)C2=CC(=O)[C@@H]1O [Compound A57] | ≥ 80%
* CO[C@]1(C)C(=O)C(=O)C=C2C1=CC=C1[C@@]2(C)CC[C@@]2(C)[C@@H]3C[C@](C)(C(=O)O)CC[C@]3(C)CC[C@]12C [Compound A1] | 30 to 50%
* CC12OCCOC1(O)C(=O)C=C1C2=CC=C2[C@@]1(C)CC[C@@]1(C)[C@@H]3C[C@](C)(C(=O)O)CC[C@]3(C)CC[C@]21C (some centres unmarked) [Compound A43] | < 30%

====

test system: A431 (epidermoid carcinoma); assay: MTT antiproliferative assay, A431; assay type: cell-based; conditions: Homo sapiens, A-431, A431, 10 μM, 48 or 72 h, read-out: inhibition of cell growth, A431
Endpoint label: inhibition at 10 µM

* COC(=O)[C@]1(C)CC[C@]2(C)CC[C@]3(C)C4=CC=C5C(=CC(=O)/C(=C\C#N)C5(C)O)[C@]4(C)CC[C@@]3(C)[C@@H]2C1 (stereo partly drawn) [Compound A33] | 50 to 80%
* [2H]C([2H])([2H])O[C@]1(C)C(=O)C(=O)C=C2C1=CC=C1[C@@]2(C)CC[C@@]2(C)[C@@H]3C[C@](C)(C(=O)O)CC[C@]3(C)CC[C@]12C [Compound A2] | 50 to 80%
* CC12OCCOC1(O)C(=O)C=C1C2=CC=C2[C@@]1(C)CC[C@@]1(C)[C@@H]3C[C@](C)(C(=O)O)CC[C@]3(C)CC[C@]21C (stereo partly drawn) [Compound A43] | < 30%
* CCCC(=O)O[C@H]1C(O)C=C2C(=CC=C3[C@@]2(C)CC[C@@]2(C)[C@@H]4C[C@](C)(C(=O)OC)CC[C@]4(C)CC[C@]32C)[C@]1(C)OC (stereo partly drawn) [Compound A25] | < 30%
* CO[C@]1(C)C(=O)C(=O)C=C2C1=CC=C1[C@@]2(C)CC[C@@]2(C)[C@@H]3C[C@](C)(CO)CC[C@]3(C)CC[C@]12C [Compound A14] | < 30%
* CNC(=O)[C@]1(C)CC[C@]2(C)CC[C@]3(C)C4=CC=C5C(=CC(=O)[C@H](O)[C@@]5(C)OC)[C@]4(C)CC[C@@]3(C)[C@@H]2C1 [Compound A17] | ≥ 80%

These measurements were taken from patent US12570687B2.
